Exercise: for every item that follows, state its recorded ELISA_avg.
Target: T1, HER2 (human, UniProt P04626 23-652)
T1 construct: The ELISA is not described; also called ERBB2; CD340
Assay: ELISA, format not described
Set-up: unit not given here
// return a plain number; no unit text

### Prompt Can you share its ELISA_avg? I mean this binder: HER2-binding D domain SEQ ID NO: 827 (designed binder) MGSWWEFYLRLRAISYRLQALGGSEAELAAFEKEIAAFESELQAYKGKGNPEVEGLRQDAAEIRKLLQAYRHN
### Response 5.1

### Prompt // ELISA_avg lookup, key: HER2-binding D domain SEQ ID NO: 814 (designed binder, also called eb04) MGSWKTFKIELAGIKLELEALGGSEAELAGFENAIAQFESSLQYYKGKGNPEVEALRKEAAAIRDELQAYRHN
### Response 4.95

### Prompt # input binder: HER2-binding D domain SEQ ID NO: 825 (designed binder) MGSWVEFWIRLNAIKYRLLALGGSEAELAAFEKEIAAFESELQAYKGKGNPEVEKLRQDAADIRELLQAYRHN ; wanted: its ELISA_avg
### Response 10.6

### Prompt Could you share which ELISA_avg value was measured for HER2-binding D domain SEQ ID NO: 815 (designed binder) MGSWWEFKVRLSAIQYRLYALGGSEAELAAFEKEIAAFESELQAYKGKGNPEVEALREQAALIRTILQAYRHN ?
### Response 5.17

### Prompt Which ELISA_avg is reported for this binder? HER2-binding D domain SEQ ID NO: 831 (designed binder) MGSWWEFQVRLAAIEYRLKALGGSEAELAAFEKEIAAFESELQAYKGKGNPEVENLRQLAAHIRSVLQAYRHN
### Response 6.33

Source listed as patent US20250026849A1.
